Target: furin, P09958;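 further: purified furin at 1:10 enzyme:substrate in 50 mM HEPES pH 7.5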
Sequence (P09958 whole entry): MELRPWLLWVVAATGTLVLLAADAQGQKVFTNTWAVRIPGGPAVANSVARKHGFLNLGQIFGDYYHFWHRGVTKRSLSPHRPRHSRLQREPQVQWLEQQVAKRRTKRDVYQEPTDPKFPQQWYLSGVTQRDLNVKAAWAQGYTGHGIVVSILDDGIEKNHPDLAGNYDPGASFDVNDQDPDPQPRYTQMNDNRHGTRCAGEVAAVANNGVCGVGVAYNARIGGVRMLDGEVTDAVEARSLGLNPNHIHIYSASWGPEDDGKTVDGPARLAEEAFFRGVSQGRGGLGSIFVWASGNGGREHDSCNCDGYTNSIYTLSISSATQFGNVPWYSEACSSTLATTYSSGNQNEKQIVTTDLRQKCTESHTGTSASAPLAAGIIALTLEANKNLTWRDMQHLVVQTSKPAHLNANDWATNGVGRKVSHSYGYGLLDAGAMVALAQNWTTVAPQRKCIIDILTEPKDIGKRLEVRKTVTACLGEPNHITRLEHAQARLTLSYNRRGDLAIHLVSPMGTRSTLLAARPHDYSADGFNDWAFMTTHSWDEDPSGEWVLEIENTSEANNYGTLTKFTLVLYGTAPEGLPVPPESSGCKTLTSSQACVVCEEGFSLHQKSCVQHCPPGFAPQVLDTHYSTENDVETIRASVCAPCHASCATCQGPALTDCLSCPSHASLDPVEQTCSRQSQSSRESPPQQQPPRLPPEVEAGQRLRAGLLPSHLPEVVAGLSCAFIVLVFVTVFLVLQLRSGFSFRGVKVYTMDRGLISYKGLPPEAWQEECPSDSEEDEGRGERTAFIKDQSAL
Test: furin cleavage Z-score vs untreated control; higher = more cleavage, active = 3.5 or more, inactive = 1 or less, 8 variable residues between constant flanks
Details: 15 min
Some of the results follow. The hit rate among all sequences tested is not known here.
reported.metric: furin cleavage Z-score
Enter the number alone.

Would you mind telling me what furin cleavage Z-score value was observed for CARFSRTVQDAGNASASA [FS-2668] ? 2.81

Would you mind telling me what furin cleavage Z-score value was observed for CATTPCSGYWAGNASASA [HC1909] ? 1.62

Would you mind telling me what furin cleavage Z-score value was observed for CAYIERSPRSAGNASASA [FS-520] ? 2.95

Would you mind telling me what furin cleavage Z-score value was observed for CASASHKKRSAGNASASA [FS-867] ? 2.31
